Assay: A549 lung cancer cell viability effects, profiling panel, resazurin fluorescence, 24 h, PK04 Diversity Set (AID 1171); further: test concentration not given here
Details: higher = more signal, called active from +8 up or from −8 down
Reported property: z-score
// return just the number, without any unit appended

Just so you know, measured z-score for CCOC(=O)C[C@H]1[C@H](OC(=O)c2cc3ccccc3oc2=O)[C@@H](NC(=O)c2ccc3ccccc3c2)c2cc(OCCCO)ccc2N1C(=O)c1ccc2ccccc2n1 came out at -0.194

Just so you know, measured z-score for C[C@H]1COC(=O)[C@H](Cc2ccccc2)NC(=O)[C@@H](C)COC(=O)[C@H](Cc2ccccc2)NC1=O came out at 0.512

Just so you know, measured z-score for CO[C@@H]1COC(=O)[C@H](C)NC(=O)CC=C[C@@H](C)[C@H](NS(=O)(=O)c2ccc(C)cc2)COC(=O)CC=C[C@@H]1C came out at 0.589

Just so you know, measured z-score for C=CCC(OC(C)=O)[C@@H]1[C@@H](N(Cc2ccc(-c3ccccc3)cc2)C(=O)c2ccc(C)cc2)c2cc(OCCCO)ccc2N1C(=O)c1ccc(-c2ccccc2)cc1 (stereo partly specified) came out at 2.47

Just so you know, measured z-score for C[C@@H]1CC[C@H]2C(=O)N3[C@@H](CC[C@@H](C)[C@@H]3c3cccc(N4CCOCC4)c3)C(=O)N2[C@H]1c1cccc(N2CCOCC2)c1 came out at 1.05

Just so you know, measured z-score for CCC1=C2CN(Cc3ccccc3Br)[C@@H]([C@@H](O)Cc3ccccc3)C2C=CCC1 (stereo partly specified) came out at 1.07
